Data provenance is PubChem BioAssay (NCI).

Provide the recorded TGI for the entries that follow.
Tested on: EKVX NSCLC
Test: NCI tumour cell line growth inhibition, 48 h
Field format: number, assumed µM, no unit text.

Please give the measured TGI for this molecule: Clc1nc(Nc2nc3ccccc3[nH]2)nc(Cl)c1-c1ccccc1
71.4

Please give the measured TGI for this molecule: CCCCCCCCCC[N+](C)(C)C
30.5

Please give the measured TGI for this molecule: CCCCCCC/C=C1\CCC(CN(C)C)C1=O (stereo not drawn)
22.8

Please give the measured TGI for this molecule: CC(C)C[C@H](NC(=O)CCc1cccc2ccccc12)B(O)O
64.2

Please give the measured TGI for this molecule: COc1ccc(-c2c3c(nc4[nH]c(=S)[nH]c(=S)c24)CCCC3)cc1OC
76.9

Please give the measured TGI for this molecule: COc1ccc(NS(=O)(=O)c2ccc(N=C3C=C(Nc4ccc(S(=O)(=O)Nc5ccc(OC)nn5)cc4)C(=O)c4ccccc43)cc2)nn1
63.1

Please give the measured TGI for this molecule: COc1cc(C(=O)N(C(=S)OC23CC4CC(CC(C4)C2)C3)c2ccccc2)cc(OC)c1OC
48.1

Please give the measured TGI for this molecule: O=C(c1cccc2cc(O)ccc12)c1cn(CCN2CCOCC2)c2ccccc12
64.8
